# credit: patent US20060257938A1

- assay_remarks: Probe fluorescence ratio response to linolenic acid relative to ADIFAB2
- Type: binding
- test_settings: response relative to ADIFAB2
- From the text: In an alternate preferred embodiment, the protein is rI-FABP that has Ala substituted for Leu at position 72 (rI-FABP-L72A) with the resulting probe named ADIFAB2. […] ADIFAB2 also has an altered spectral response, making it especially useful for measurements of FFAu in blood samples (Apple et al, Clinical Proteomics, (2004) 1:41-44, U.S. patent application Ser. No. 10/670,958). […] The baseline value for this ratio, measured in the absence of analyte, is designated R0. […]
Reported DR/DR LNA by item:
API note: the answer field is a bare number with no unit suffix.

Prompt: Tell me the measured DR/DR LNA of 82Y2, 72A (protein, listed as Rattus norvegicus, PEPTIDE (1)...(131) wild-type rat intestinal fatty acid binding protein) AFDGTWKVDRNENYEKFMEKMGINVVKRKLGAHDNLKLTITQEGNKFTVKESSNFRNIDVVFELGVDFAYSAADGTELTGTYTMEGNKLVGKFKRVDNGKELIAVREISGNELIQTYTYEGVEAKRIFKKE , please.
Completion: 1.57
